- experimental.target: T1, human GIPR (glucose-dependent insulinotropic polypeptide receptor) (human, UniProt P48546 22-466)
- T1 sequence (looked up): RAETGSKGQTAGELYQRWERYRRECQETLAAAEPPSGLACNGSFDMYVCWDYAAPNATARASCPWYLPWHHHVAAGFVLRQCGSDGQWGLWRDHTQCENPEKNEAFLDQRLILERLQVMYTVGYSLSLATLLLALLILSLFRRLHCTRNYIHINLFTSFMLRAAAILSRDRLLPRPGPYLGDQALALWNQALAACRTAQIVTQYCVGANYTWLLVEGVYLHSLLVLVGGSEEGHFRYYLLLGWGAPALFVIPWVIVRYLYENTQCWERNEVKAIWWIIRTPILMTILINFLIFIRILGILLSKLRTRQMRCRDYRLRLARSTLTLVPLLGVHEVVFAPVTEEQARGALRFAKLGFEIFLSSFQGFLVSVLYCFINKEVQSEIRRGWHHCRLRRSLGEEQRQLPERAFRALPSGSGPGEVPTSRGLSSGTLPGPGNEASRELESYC
- measurement.description: cell-based or functional assay
*1 amine or outer side, *2 acyl side, *3 side chain or, on linkers, in order; H or OH if unused. Where no end group is shown, it is not given here. Side-chain parts run from the residue outwards. [ ]: non-standard residue; d: D form. The star is where a group is joined. C18 diacid = O=C(O)CCCCCCCCCCCCCCCCC(=O)*; γGlu = O=C(O)[C@H](CCC(=O)[*:2])N[*:1]; Decanoyl = CCCCCCCCCC(=O)*; AEEA = NCCOCCOCC(=O)O; Aib = CC(C)(N)C(=O)O
recorded.endpoint: pEC50 GIPR

• HADGTFTSDYST[Aib]LDK([AEEA-AEEA-γGlu-C18 diacid])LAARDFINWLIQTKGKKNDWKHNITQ-OH [Compound 22] = 9
• HADGTFTSDYSTILDKK([AEEA-AEEA-γGlu-C18 diacid])AARDFINWLIQTKGKKNDWKHNITQ-OH [Compound 23] = 8.2
• H[Aib]DGTFISDYSTILDALAARDFINWLIQTKITK([AEEA-AEEA-γGlu-C18 diacid])-OH [Compound 28] = 10.2
• HXDGTFISDYSTILDNLAARDFIEWLIQTKITK (Aib at position 2; K33 acylated with C10, K(C10); C-terminal amide (-NH2)) [Compound 9] = 9.2
• H[Aib]EGTFISDYSTILDNLAARDFINWLIQTKITK(Decanoyl)-NH2 [Compound 11] = 7.9
• H[Aib]DGTFISDYSIILDNLAARDFINWLIQTKITK(Decanoyl)-NH2 [Compound 10] = 9.3
• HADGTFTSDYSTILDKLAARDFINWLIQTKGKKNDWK([AEEA-AEEA-γGlu-C18 diacid])HNITQ-OH [Compound 25] = 9.4
• HADGTFTSDYST[Aib]LDKLAARDFINWLIQTKGKKNDWKHNITQK([AEEA-AEEA-γGlu-C18 diacid])-OH [Compound 27] = 9.3
• HADGTFTSDYSTILDKLAARDFINWLIQTKGKK([AEEA-AEEA-γGlu-C18 diacid])NDWKHNITQ-OH [Compound 24] = 9.4
• HADGTFTSDYSTILDK([AEEA-AEEA-γGlu-C18 diacid])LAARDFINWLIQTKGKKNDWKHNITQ-OH [Compound 21] = 9.4
